Origin of the recorded values: PubChem BioAssay (NCI)

- System: T-47D breast
- EXPERIMENTAL PROTOCOL: NCI-60 one-dose screen, 48 h (100 = growth as untreated, 0 = no growth, -100 = all killed)
- CONDITION DESCRIPTION: 10 µM unless noted
About 83,000 compounds went through this panel and 20% of them were active in at least one assay; those are over-represented in the sample as a whole.
MEASURE: growth (%)
Just the number please, in %, no unit attached.

Return the recorded growth value; entry: COc1ccc2[nH]c(O)c(/C=c3/cc4c(c(-c5ccc(F)c(OC)c5)n3)=Nc3ccccc3-4)c2c1 89.6

Return the recorded growth value; entry: COC(=O)[C@]12CC[C@@H](C)[C@H](C)[C@@H]1C1=CC[C@@H]3[C@@]4(C)C(C=O)=C[C@@](C)(COS(C)(=O)=O)C4[C@H](O)C[C@@]3(C)[C@]1(C)CC2 (some centres undefined) -29.4

Return the recorded growth value; entry: COc1cc2c(cc1-c1c(C)noc1C)ncc1nc(C3CCCCC3)n(C3CCC(OC(F)F)CC3)c12 (centres undefined) -0.67

Return the recorded growth value; entry: Cc1ccc(/C=C/c2c(C(=O)/C=C/c3ccc(C(F)(F)F)cc3)c(C)nc3ccccc23)cc1 -13.1

====

- System: MALME-3M melanoma
- EXPERIMENTAL PROTOCOL: NCI-60 one-dose screen, 48 h
- CONDITION DESCRIPTION: 10 µM unless noted
The panel holds about 83,000 compounds, 20% with a hit somewhere; the sample as a whole holds those more often. Active and inactive are the calls of the source. The calls were made as follows: active = growth percent below 10; inactive = the rest.
// allowed return values: active, inactive

Please state the recorded outcome for this compound: CN1CCN(CC(=O)Nc2nc(-c3cccc(NS(=O)(=O)c4cccc5c(N(C)C)cccc45)c3)cs2)CC1 inactive

Please state the recorded outcome for this compound: Cc1nn(-c2ccccc2)c2nc3c(c(-c4ccc(Cl)cc4)c12)CNC1(CCSCC1)N3 inactive

Please state the recorded outcome for this compound: CCOC(=O)c1c2ncccc2n2c(=O)n(-c3ccccc3C)nnc12 inactive

Please state the recorded outcome for this compound: O=C(NC(Cc1nnc2n(Cc3ccccc3)c(=O)c3c4c(sc3n12)CCCC4)c1ccc(Cl)cc1)c1ccccc1 (centres undefined) inactive

Please state the recorded outcome for this compound: N#Cc1c(N)nn(C(=O)c2ccc(NC(=O)c3ccccn3)cc2)c1-c1ccc(Cl)cc1 active

Please state the recorded outcome for this compound: COc1ccc2[nH]c(O)c(/C=c3/cc4c(c(-c5cc(OC)c(OC)c(OC)c5)n3)=Nc3ccccc3-4)c2c1 inactive

Please state the recorded outcome for this compound: C=C1C(=O)O[C@H]2[C@H]1CC/C(COC(=O)C(=O)c1c[nH]c3ccccc13)=C\CC[C@@]1(C)O[C@@H]21 active

Please state the recorded outcome for this compound: C=C(C)[C@@H]1CC=C2c3sc(-c4ccc(C)cc4)nc3C[C@@H](C)[C@]2(C)C1 inactive

Please state the recorded outcome for this compound: CN(C)c1ccc(/C=C/C(=O)c2cccc(Nc3nc(Nc4ccccc4)nc(Nc4ccccc4)n3)c2)cc1 inactive

====

- System: SN12C renal
- EXPERIMENTAL PROTOCOL: NCI-60 one-dose screen, 48 h
- CONDITION DESCRIPTION: 10 µM unless noted
This is part of a sample that, as a whole, favours compounds with a hit. Of some 83,000 tested, about 20% had one in any assay. Calls of active or inactive are those of the source. The calls were made as follows: active = growth percent below 10; inactive = the rest.
// allowed return values: y for active, n for inactive

Please state the recorded outcome for this compound: C=C(C)[C@@H]1CC[C@]2(C(=O)NC3CCCCC3)CC[C@]3(C)[C@H](CC[C@@H]4[C@@]5(C)CCC(=O)C(C)(C)[C@@H]5CC[C@]43C)[C@@H]12 n

Please state the recorded outcome for this compound: Cc1cc[c-]cc1.Fc1c[c-]c(-c2ccccn2)c(F)c1.[Pt+2].c1ccc(P(C[PH+](c2ccccc2)c2ccccc2)c2ccccc2)cc1 y

Please state the recorded outcome for this compound: COc1cc(C(=O)/C=C/c2c(C(F)(F)F)nc3sccn23)cc(OC)c1OC n

Please state the recorded outcome for this compound: C=C(C)[C@@H]1CC=C2c3sc(-c4ccc(C)cc4)nc3C[C@@H](C)[C@]2(C)C1 n

Please state the recorded outcome for this compound: COc1cccc(-c2nc3sccn3c2-c2ccnc(NCCNS(=O)(=O)c3cccc(Cl)c3)c2)c1 n

Please state the recorded outcome for this compound: COc1ccc(C2=Nc3c(N)ncnc3NC(c3ccc4c(c3)OCO4)C2)cc1 (centres undefined) n

Please state the recorded outcome for this compound: Cc1cc(/C=C\c2ccc3ccccc3[n+]2C)c(O)c2ncccc12 y

Please state the recorded outcome for this compound: CCN(CC)CCCCCCNc1cc(OC)c(Cl)c2cccnc12 n

Please state the recorded outcome for this compound: COc1ccc(N=Nc2ccc(O)c(=O)cc2)cc1 y

Please state the recorded outcome for this compound: O=c1c2cc(F)ccc2sc2c(NCCCN3CCCC3)nc3ccccc3c12 n

Please state the recorded outcome for this compound: Cc1cc(N2CCCC2)nc(NCc2cc(Nc3ccnc4cc(Cl)ccc34)ccc2F)n1 y

Please state the recorded outcome for this compound: CN1C(=O)N(C)C2C1NN=c1s/c(=C\c3ccccc3)c(=O)n12 (centres undefined) n

Please state the recorded outcome for this compound: O=C1/C(=C\c2cccnc2)SC(=S)N1CCc1ccc(O)cc1 n

Please state the recorded outcome for this compound: COc1ccc2[nH]c(O)c(/C=c3/cc4c(c(-c5ccc(F)c(OC)c5)n3)=Nc3ccccc3-4)c2c1 n

Please state the recorded outcome for this compound: Cc1cc(C)c2c(-c3nnc(N)s3)cc(=O)oc2c1 n

Please state the recorded outcome for this compound: CC(CN1CCCCC1)C(=O)c1ccccc1 (centres undefined) n

Please state the recorded outcome for this compound: Cn1cc2c(c1)-c1nc(Nc3ccccc3)ncc1CC2 n

Please state the recorded outcome for this compound: O=c1cc(-c2ccc(Cl)cc2)[nH]c2ccccc12 n

Please state the recorded outcome for this compound: O=C(Cc1ccc(F)c(F)c1)Nc1cc(C2(C(F)(F)F)CC2)nn1Cc1ccccc1 y

Please state the recorded outcome for this compound: CC/C=C1/C(=O)C=C[C@@H]1C/C=C\CCCC(=O)O n

Please state the recorded outcome for this compound: C=CCOC1=CC(=O)c2ccccc2C1=O n

Please state the recorded outcome for this compound: COCN1CCC2N(COC)CCC3N(COC)CCC1N23 (centres undefined) n

Please state the recorded outcome for this compound: Cc1cc(NCCCCNc2ccnc3cc(Cl)ccc23)nc(Nc2ccc(C(=O)N3CCCC3)cc2)n1 n

Please state the recorded outcome for this compound: COC(=O)[C@H](CSC)N(C)C(=O)[C@@H]1CSSC[C@@H](NC(=O)c2nc3ccccc3cc2O)C(=O)NCC(=O)N1C n

Please state the recorded outcome for this compound: C[C@H]1[C@H]2[C@H]3CC[C@@H]4[C@@]5(C)C/C(=C/c6ccco6)C(=O)C(C)(C)[C@@H]5CC[C@@]4(C)[C@]3(C)CC[C@]23CO[C@]1(C)[C@@H](C(=O)/C=C\c1ccco1)C3 n

Please state the recorded outcome for this compound: CCOC(=O)/C=C/c1cc2cc(-c3csc4ccccc34)ccc2[nH]1 n

Please state the recorded outcome for this compound: COc1ccc2[nH]c(O)c(/C=c3/cc4c(c(-c5cc(OC)c(OC)c(OC)c5)n3)=Nc3ccccc3-4)c2c1 n

Please state the recorded outcome for this compound: Cc1c(Cl)cc(-n2c(=O)c3ccccc3c3ccccc3c2=O)cc1Cl n

Please state the recorded outcome for this compound: O=c1[nH]ccc2nc(N3CCC(O)CC3)nc(Nc3ccc(N4CCOCC4)cc3)c12 n

Please state the recorded outcome for this compound: OC(COc1ccccc1Cl)COc1ccccc1Cl n

Please state the recorded outcome for this compound: CCN(CC)CCCC(C)Nc1c2ccc(Cl)cc2nc2ccc(O)cc12 (centres undefined) n

Please state the recorded outcome for this compound: CCN(CC)CCn1nc2c3c(cccc3c1=O)-c1ccccc1-2 n

Please state the recorded outcome for this compound: C#Cc1cccc(NC(=O)c2ccc(NC(=O)CCl)cc2)c1 y

Please state the recorded outcome for this compound: COc1ccc2c(c1)O/C(=C/c1ccc(OCC(=O)c3ccccc3)cc1)C2=O n

Please state the recorded outcome for this compound: N#CC1=C(c2ccc(Br)cc2)NC(SCC(=O)c2ccc(Br)cc2)NC1=O (centres undefined) n

Please state the recorded outcome for this compound: N/C(=N\c1nc2ccccc2s1)NC(=O)Nc1cccc(Cl)c1 n

Please state the recorded outcome for this compound: CCCCCS(=O)(=O)Nc1ccc(C(=O)O)cc1 n

Please state the recorded outcome for this compound: COC(=O)[C@]12CC[C@@H](C)[C@H](C)[C@@H]1C1=CC[C@@H]3[C@@]4(C)C(C=O)=C[C@@](C)(CO)[C@@H]4[C@H](O)C[C@@]3(C)[C@]1(C)CC2 y

Please state the recorded outcome for this compound: O=C1CCc2c(sc3[nH]c(=S)n(-c4ccc(OC(F)(F)F)cc4)c(=O)c23)C1 n

====

- System: DU-145 prostate
- EXPERIMENTAL PROTOCOL: NCI-60 one-dose screen, 48 h (100 = growth as untreated, 0 = no growth, -100 = all killed)
- CONDITION DESCRIPTION: 10 µM unless noted
This is part of a sample that, as a whole, favours compounds with a hit. Of some 83,000 tested, about 20% had one in any assay.
MEASURE: growth (%)
Just the number please, in %, no unit attached.

Return the recorded growth value; entry: COc1ccc(CN2C(=O)C(Cl)=C(Nc3cccc(C(F)(F)F)c3)C2=O)cc1 84.9

Return the recorded growth value; entry: CC(CN1CCCCC1)C(=O)c1ccccc1 (stereo unspecified) 104

Return the recorded growth value; entry: N#Cc1c(-c2ccccn2)[nH]c(=S)[nH]c1=O 105

Return the recorded growth value; entry: O=C(/C=C/c1ccc(Cl)nc1)c1ccc(Cl)cc1Cl 108

Return the recorded growth value; entry: CCOP(=O)(OCC)C1CP(=O)(c2ccccc2)CC(C)=C1Cl (stereo unspecified) 104

Return the recorded growth value; entry: C[n+]1cc2cc(C(N)=O)[nH]c3c(=N)c(Cl)c(N)c1c23 69.7

Return the recorded growth value; entry: COc1cc2c(cc1-c1c(C)noc1C)ncc1nc(C3CCCCC3)n(C3CCC(OC(F)F)CC3)c12 (stereo unspecified) 63

Return the recorded growth value; entry: O=C1N=c2cc3c(cc2=C/C1=C/c1sc(=S)n(CCc2ccc(O)cc2)c1O)OCCO3 80.6

Return the recorded growth value; entry: Cc1ccc(S(=O)(=O)NCC[C@@H]2C[C@H]2c2cc3ccccc3s2)cc1 101

Return the recorded growth value; entry: CC1(C)CC[C@]2(C(=O)N3CCOCC3)CC[C@]3(C)C(=CC[C@@H]4[C@@]5(C)CC[C@H](OC(=O)c6cccnc6)C(C)(C)[C@@H]5CC[C@]43C)[C@@H]2C1 60.9

Return the recorded growth value; entry: COc1cccc(-c2nn(-c3ccccc3)cc2-c2ccnc(NCCCNC(=O)c3ccccc3)c2)c1 64.7

Return the recorded growth value; entry: Cc1ccc2nc3ccccc3c(NCc3ccccc3)c2c1 35.8

Return the recorded growth value; entry: COc1cc(-c2nn(-c3ccccc3)cc2-c2ccnc(NCCNS(=O)(=O)c3ccc(Cl)cc3)n2)ccc1Cl 50.7

Return the recorded growth value; entry: Cc1c(C(=O)OC(=NC2CCCCC2)NC2CCCCC2)sc2c1c(=O)nc1c(C#N)n[nH]n12 110

Return the recorded growth value; entry: COc1cc(C(=O)c2cc(C)c3[nH]c4ccc(Cl)cc4c3c2C)cc(OC)c1OC -19.7

Return the recorded growth value; entry: Cc1cc(N2CCCC2)nc(NCc2cc(Nc3ccnc4cc(Cl)ccc34)ccc2F)n1 -65.9

Return the recorded growth value; entry: CC(=O)C(C)Cc1cc2c(cc1C)C(C)(C)CCC2(C)C (stereo unspecified) 107

Return the recorded growth value; entry: Cn1c(=O)c2c(nc(Cl)n2CCl)n(C)c1=O 113

Return the recorded growth value; entry: O=c1[nH]c2ccccc2n1C1CCN(CCOc2ccccc2)CC1 73.4

Return the recorded growth value; entry: C[n+]1cc2c3c(ccc2c2ccc4cc5c(cc4c21)OCO5)OCO3 -94.4

Return the recorded growth value; entry: O=C1Nc2ccccc2/C1=C/c1cn(C(=O)c2ccc(Cl)cc2)c2ccccc12 118
